Would you mind telling me the reported pIC50 of each entry?
# Tested on: U937 cells (human monocytic cell line)
# ASSAY: Pam2CSK4-induced TNF-α secretion inhibition in PMA-differentiated U937 cells
# Assay type: cell-based
# CONDITION INFO: U-937, U937 cells differentiated with PMA, read-out: TNF-α production inhibition grade (IC50)
pIC50: −log10 of the molar value.

For the compound `CC[C@H]1[C@@H](O)[C@@H]2[C@H](C[C@H](O)[C@]3(C)[C@@H]([C@H](C)CCC(=O)N[C@@H](CO)CS(=O)(=O)O)CC[C@@H]23)[C@@]2(C)CC[C@@H](O)C[C@@H]12` , give its measured pIC50 value. ≤ 5.70

For the compound `C[C@H](CCC(=O)N1CC[C@H](S(=O)(=O)O)C1)[C@H]1CC[C@H]2[C@@H]3CC[C@@H]4C[C@H](O)CC[C@]4(C)[C@H]3CC[C@]12C` , give its measured pIC50 value. > 6.30

For the compound `CC[C@H]1[C@@H](O)[C@@H]2[C@H](CC[C@]3(C)[C@@H]([C@H](C)CCC(=O)N[C@@H](CO)CS(=O)(=O)O)CC[C@@H]23)[C@@]2(C)CC[C@@H](O)C[C@@H]12` , give its measured pIC50 value. 6.00 to 6.30

For the compound `C[C@H](CCC(=O)N[C@H]1CCCC[C@H]1S(=O)(=O)O)[C@H]1CC[C@H]2[C@@H]3[C@H](O)C[C@@H]4C[C@H](O)CC[C@]4(C)[C@H]3C[C@H](O)[C@]12C` , give its measured pIC50 value. ≤ 5.70

For the compound `CC[C@H]1[C@@H](O)[C@@H]2[C@H](C[C@H](O)[C@]3(C)[C@@H]([C@H](C)CCC(=O)N[C@@H](C)CS(=O)(=O)O)CC[C@@H]23)[C@@]2(C)CC[C@@H](O)C[C@@H]12` , give its measured pIC50 value. 5.70 to 6.00

For the compound `C[C@H](CCC(=O)N(CCS(=O)(=O)O)C1CCOCC1)[C@H]1CC[C@H]2[C@@H]3CC[C@@H]4CC(=O)CC[C@]4(C)[C@H]3CC[C@]12C` , give its measured pIC50 value. 6.00 to 6.30

For the compound `CC(C)[C@H](CS(=O)(=O)O)NC(=O)CC[C@@H](C)[C@H]1CC[C@H]2[C@@H]3CC[C@@H]4CC(=O)CC[C@]4(C)[C@H]3CC[C@]12C` , give its measured pIC50 value. ≤ 5.70

For the compound `C[C@H](CCC(=O)N1CC[C@@H](S(=O)(=O)O)C1)[C@H]1CC[C@H]2[C@@H]3[C@H](O)C[C@@H]4C[C@H](O)CC[C@]4(C)[C@H]3C[C@H](O)[C@]12C` , give its measured pIC50 value. 5.70 to 6.00

For the compound `C[C@H](CCC(=O)N1CCC[C@H](S(=O)(=O)O)C1)[C@H]1CC[C@H]2[C@@H]3CC[C@@H]4C[C@H](O)CC[C@]4(C)[C@H]3CC[C@]12C` , give its measured pIC50 value. ≤ 5.70

For the compound `CC[C@H]1[C@@H](O)[C@@H]2[C@H](C[C@H](O)[C@]3(C)[C@@H]([C@H](C)CCC(=O)NC(C)(C)CS(=O)(=O)O)CC[C@@H]23)[C@@]2(C)CC[C@@H](O)C[C@@H]12` , give its measured pIC50 value. 5.70 to 6.00
